The following compounds are shown together with reported MIC values.
Tested on: Mycobacterium tuberculosis
experiment: Antimicrobial activity against Mycobacterium tuberculosis H190
Format: functional

compound	unit-abbreviation	qualifier-sign	MIC
CCCCC/C=C/C/C=C/CCCCCCCC(=O)OCC(CO[C@@H]1O[C@H](CO)[C@@H](O)[C@H](O)[C@H]1O)OC(=O)CCCCCCC/C=C/C/C=C/CCCCC (mixture of isomers)	µg/mL	=	128
CCCCCCCC/C=C/CCCCCCCC(=O)OC(COC(=O)CCCCCCCCC)CO[C@@H]1O[C@H](CO)[C@@H](O)[C@H](O)[C@H]1O (mixture of isomers)	µg/mL	>	128
CC/C=C/C/C=C/C/C=C/CCCCCCCC(=O)OC(COC(=O)CCCCCCCCC)CO[C@@H]1O[C@H](CO)[C@@H](O)[C@H](O)[C@H]1O (mixture of isomers)	µg/mL	>	128
CCCCCCCC/C=C/CCCCCCCC(=O)OC(COC(=O)CCCCCCC)CO[C@@H]1O[C@H](CO)[C@@H](O)[C@H](O)[C@H]1O (mixture of isomers)	µg/mL	=	64
O=C(O)c1cn(C2CC2)c2cc(N3CCNCC3)c(F)cc2c1=O	µg/mL	=	0.5
CCCCCCCCCCCCCC(=O)OCC(CO[C@@H]1O[C@H](CO)[C@@H](O)[C@H](O)[C@H]1O)OC(=O)CCCCCCCCCCCCC (some centres not stated)	µg/mL	>	128
CCCCCCCCCC(=O)OCC(CO[C@@H]1O[C@H](CO)[C@@H](O)[C@H](O)[C@H]1O)OC(=O)CCCCCCCCC (mixture of isomers)	µg/mL	=	64
CCCCCCCC/C=C/CCCCCCCC(=O)OCC(CO[C@@H]1O[C@H](CO)[C@@H](O)[C@H](O)[C@H]1O)OC(=O)CCCCCCC/C=C/CCCCCCCC (mixture of isomers)	µg/mL	>	128
CCCCC/C=C/C/C=C/CCCCCCCC(=O)OC(COC(=O)CCCCCCC)CO[C@@H]1O[C@H](CO)[C@@H](O)[C@H](O)[C@H]1O (mixture of isomers)	µg/mL	=	64
CCCCCCCCCCCCCCCCCC(=O)OCC(CO[C@@H]1O[C@H](CO)[C@@H](O)[C@H](O)[C@H]1O)OC(=O)CCCCCCCCCCCCCCCCC (mixture of isomers)	µg/mL	>	128
CCCCCCCC(=O)OCC(CO[C@@H]1O[C@H](CO)[C@@H](O)[C@H](O)[C@H]1O)OC(=O)CCCCCCC (mixture of isomers)	µg/mL	=	64
CC/C=C/C/C=C/C/C=C/CCCCCCCC(=O)OC(COC(=O)CCCCCCC)CO[C@@H]1O[C@H](CO)[C@@H](O)[C@H](O)[C@H]1O (mixture of isomers)	µg/mL	=	64
